Ref: patent US20100317689A1

# procedure summary: Stability in human plasma
# Assay type: in vitro ADME

{"molecule": "COc1ccc2c(n1)nc([S+]([O-])Cc1ncc(C)c(OC)c1C)n2S(=O)(=O)c1ccc(OCC(=O)[O-])cc1.[Na+] (stereo not shown) [Compound 1]", "half-life [min]": 1.35}
